Provenance of the data: patent US20180273538A1

# TARGET: DYRK1B (Homo sapiens)
# Construct: full-length human kinases from Carna Biosciences; purchased Carna Biosciences 04-131
# PROTOCOL_NOTES: Kinase TR-FRET assay, DYRK1B
# Assay type: biochemical
hey, just use Fulfilled if measured IC50 is less than 0.02 µM, otherwise Not fulfilled

Consider Cc1nc(-c2cc3ccccc3[nH]2)c2c(-c3ccnc(N)c3)c[nH]c2n1 . Does its IC50 lie strictly below 0.02 µM?
Not fulfilled

Consider Cc1nc(N[C@@H]2C[C@H]3CC[C@@H]2C3)c2c(-c3ccnc(N)c3)c[nH]c2n1 . Does its IC50 lie strictly below 0.02 µM?
Not fulfilled

Consider Cc1nc(-c2ccc3c(c2)OCCO3)c2c(-c3ccnc(N)c3)c[nH]c2n1 . Does its IC50 lie strictly below 0.02 µM?
Fulfilled

====

# TARGET: CLK1 (Homo sapiens)
# Construct: full-length human kinases from Carna Biosciences; purchased Carna Biosciences 04-126
# Sequence (P49759 1-526 isoform P49759-3): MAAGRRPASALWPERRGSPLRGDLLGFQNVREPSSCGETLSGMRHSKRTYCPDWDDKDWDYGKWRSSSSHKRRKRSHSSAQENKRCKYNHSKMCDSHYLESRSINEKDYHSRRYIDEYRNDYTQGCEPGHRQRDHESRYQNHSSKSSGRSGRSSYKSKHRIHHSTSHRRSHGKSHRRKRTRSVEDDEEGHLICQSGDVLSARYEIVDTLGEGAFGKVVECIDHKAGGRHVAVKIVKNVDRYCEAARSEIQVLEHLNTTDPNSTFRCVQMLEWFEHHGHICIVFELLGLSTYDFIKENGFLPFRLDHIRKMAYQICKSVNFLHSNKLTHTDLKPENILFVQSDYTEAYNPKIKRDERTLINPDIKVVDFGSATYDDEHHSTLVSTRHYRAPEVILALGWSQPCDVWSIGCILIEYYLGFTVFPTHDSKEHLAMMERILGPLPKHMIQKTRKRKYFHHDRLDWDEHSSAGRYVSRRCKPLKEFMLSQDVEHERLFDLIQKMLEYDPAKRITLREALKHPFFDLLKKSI
# PROTOCOL_NOTES: Kinase TR-FRET assay, CLK1
# Assay type: biochemical
ASSAY_READOUT: IC50 (µM)
Please reply with the bare figure in µM and do not write the unit itself.

MOLECULE	IC50, µM
Cc1nc(N2CCc3ccccc3C2)c2c(-c3ccnc(N)c3)c[nH]c2n1	0.0151
Cc1nc(-c2ccccc2)c2c(-c3ccnc(N)c3)c[nH]c2n1	0.104

Kindly review the next compound as well.
Requested field: IC50. Item: COc1cccnc1CNc1nc(C)nc2[nH]cc(-c3ccnc(N)c3)c12
0.0241

====

Listed molecules paired with reported IC50
# TARGET: His-TEV-DYRK1A Kinase domain (aa127-485) (Homo sapiens, UniProt Q13627)
# Construct: His-TEV-DYRK1A Kinase domain (aa127-485); His (N); TEV cleavage site (N)
# PROTOCOL_NOTES: Kinase ADP assay (ADP Hunter Plus)
# Assay type: biochemical
Please reply with the bare figure in µM and do not write the unit itself.

// known answers, use as guide
MOLECULE	IC50 [µM]
Cc1nc(-c2cccc(OCCCN3CCCCC3)c2)c2c(-c3ccnc(N)c3)c[nH]c2n1	0.148
Cc1nc(NCc2cccc(F)c2)c2c(-c3ccnc(N)c3)c[nH]c2n1	0.045
Nc1cc(-c2c[nH]c3nc(C#CC4CC4)nc(-c4ccc5c(c4)OCO5)c23)cc(N)n1	0.013

Requested field: IC50. Item: Cc1nc(-c2ccccc2)c2c(-c3ccnc(N)c3)c[nH]c2n1
0.026

Requested field: IC50. Item: Cc1nc(-c2cccc(OCCN(C)C)c2)c2c(-c3ccnc(N)c3)c[nH]c2n1
0.155

====

# TARGET: phospho-Ser520-DYRK1A (Homo sapiens, UniProt Q13627)
# Construct: full-length, wild-type human DYRK1A (NM_001396) with an HA tag; expressed in transfected cells; host or cells: human U2-OS osteosarcoma cells, pcDNA3.1 plasmid
# PROTOCOL_NOTES: Cellular DYRK1A autophosphorylation assay in U2-OS cells
# Type: cell-based
# CONDITION_SUMMARY: 5 hours exposure, read-out: IC50 (μM) P-Ser520-Dyrk1A-Cell assay
ASSAY_READOUT: IC50 (µM)
Please reply with the bare figure in µM and do not write the unit itself.

COMPOUND	REPORTED_VALUE
COc1ccccc1[C@H](C)Nc1nc(C)nc2[nH]cc(-c3ccnc(N)c3)c12 [Example 106]	0.177

Requested field: IC50. Item: Cc1nc(C#CC2CC2)c2c(-c3cc(N)nc(N)c3)c[nH]c2n1 [Example 196]
0.172

Requested field: IC50. Item: Cc1nc(OCc2cc(C)on2)c2c(-c3ccncc3)c[nH]c2n1 [Example 16]
0.14

Requested field: IC50. Item: Cc1nc(NC2Cc3ccccc3C2)c2c(-c3ccnc(N)c3)c[nH]c2n1 [Example 99]
0.192

====

# TARGET: DYRK1B (Homo sapiens, UniProt Q9Y463)
# Construct: full-length human kinases from Carna Biosciences; purchased Carna Biosciences 04-131
# Sequence (Q9Y463 whole entry): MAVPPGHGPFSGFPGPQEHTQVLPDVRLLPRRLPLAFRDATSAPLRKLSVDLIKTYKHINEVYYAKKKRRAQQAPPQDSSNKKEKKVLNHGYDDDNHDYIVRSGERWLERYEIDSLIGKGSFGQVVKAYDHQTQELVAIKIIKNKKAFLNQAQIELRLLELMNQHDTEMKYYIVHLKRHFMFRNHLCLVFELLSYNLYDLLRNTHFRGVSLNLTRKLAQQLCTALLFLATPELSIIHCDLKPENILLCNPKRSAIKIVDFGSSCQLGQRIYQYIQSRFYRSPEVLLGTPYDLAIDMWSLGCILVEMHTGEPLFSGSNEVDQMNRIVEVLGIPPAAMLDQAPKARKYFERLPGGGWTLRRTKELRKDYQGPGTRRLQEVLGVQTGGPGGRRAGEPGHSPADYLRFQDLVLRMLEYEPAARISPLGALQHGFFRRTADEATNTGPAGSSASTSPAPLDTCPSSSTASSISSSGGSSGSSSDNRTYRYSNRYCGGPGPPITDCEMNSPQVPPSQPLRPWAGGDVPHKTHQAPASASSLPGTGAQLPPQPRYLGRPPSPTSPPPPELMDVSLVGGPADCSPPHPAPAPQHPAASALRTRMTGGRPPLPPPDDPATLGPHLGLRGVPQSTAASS
# PROTOCOL_NOTES: Kinase TR-FRET assay, DYRK1B
# Assay type: biochemical
ASSAY_READOUT: IC50 (µM)
Please reply with the bare figure in µM and do not write the unit itself.

// known answers, use as guide
COMPOUND	ASSAY_READOUT	UNIT_INFO	REPORTED_VALUE
Cc1nc(NCc2c(F)cccc2Cl)c2c(-c3ccnc(N)c3)c[nH]c2n1 [Example 62]	IC50	µM	0.0002
Cc1cc(NCc2c(F)cccc2F)c2c(-c3ccnc(N)c3)c[nH]c2n1 [Example 213]	IC50	µM	0.0092
Cc1nc(-c2cc3ccccc3s2)c2c(-c3ccnc(N)n3)c[nH]c2n1 [Example 207]	IC50	µM	0.0181

Requested field: IC50. Item: COc1ccccc1[C@H](C)Nc1nc(C)nc2[nH]cc(-c3cc(N)nc(N)c3)c12 [Example 117]
0.0093

Requested field: IC50. Item: Cc1nc(NCc2cccc(Cl)c2Cl)c2c(-c3ccnc(N)c3)c[nH]c2n1 [Example 81]
0.0141

Requested field: IC50. Item: Cc1nc(OCc2cc(C)on2)c2c(-c3ccncc3)c[nH]c2n1 [Example 16]
0.0178

====

# TARGET: His-TEV-DYRK1A Kinase domain (aa127-485) (Homo sapiens)
# Construct: His-TEV-DYRK1A Kinase domain (aa127-485); His (N); TEV cleavage site (N)
# PROTOCOL_NOTES: Kinase ADP assay (ADP Hunter Plus)
# Assay type: biochemical
hey, just use label 1 if measured IC50 is less than 0.05 µM, otherwise label 0

// known answers, use as guide
COMPOUND	ASSIGNED_CLASS
COc1ccccc1[C@H](C)Nc1nc(C)nc2[nH]cc(-c3ccnc(N)c3)c12	label 1
Cc1nc(NCc2c(F)cccc2F)c2c(-c3cc(N)ncn3)c[nH]c2n1	label 1
Cc1nc(N2CC[C@H]3CCCC[C@H]3C2)c2c(-c3ccnc(N)c3)c[nH]c2n1	label 1

Consider Cc1nc(N2CCc3sccc3C2)c2c(-c3ccnc(N)c3)c[nH]c2n1 . Does its IC50 lie strictly below 0.05 µM?
label 1

Consider Cc1nc(NCc2c(F)cccc2Cl)c2c(-c3ccnc(N)c3)c[nH]c2n1 . Does its IC50 lie strictly below 0.05 µM?
label 1

Consider Cc1nc(OCCN2CCCCC2)c2c(-c3ccncc3)c[nH]c2n1 . Does its IC50 lie strictly below 0.05 µM?
label 0

Consider Cc1nc(NCc2c(C)cccc2F)c2c(-c3ccnc(N)c3)c[nH]c2n1 . Does its IC50 lie strictly below 0.05 µM?
label 1

Consider Cc1nc(-c2ccc(C#N)c(F)c2)c2c(-c3ccnc(N)c3)c[nH]c2n1 . Does its IC50 lie strictly below 0.05 µM?
label 0

Consider Cc1nc(OCCc2ccccc2)c2c(-c3ccncc3)c[nH]c2n1 . Does its IC50 lie strictly below 0.05 µM?
label 0

Consider Cc1nc(NC(C)c2ccccc2)c2c(-c3ccnc(N)c3)c[nH]c2n1 (stereo not drawn) . Does its IC50 lie strictly below 0.05 µM?
label 0

Consider COc1cccc(C(F)(F)F)c1CNc1nc(C)nc2[nH]cc(-c3ccnc(N)c3)c12 . Does its IC50 lie strictly below 0.05 µM?
label 1

Consider C#Cc1cc(-c2ccc3c(c2)OCO3)c2c(-c3cc(N)nc(N)c3)c[nH]c2n1 . Does its IC50 lie strictly below 0.05 µM?
label 1
